tgt: recombinant CD73 (Homo sapiens (Human), UniProt P21589)
Sequence (P21589 27-547): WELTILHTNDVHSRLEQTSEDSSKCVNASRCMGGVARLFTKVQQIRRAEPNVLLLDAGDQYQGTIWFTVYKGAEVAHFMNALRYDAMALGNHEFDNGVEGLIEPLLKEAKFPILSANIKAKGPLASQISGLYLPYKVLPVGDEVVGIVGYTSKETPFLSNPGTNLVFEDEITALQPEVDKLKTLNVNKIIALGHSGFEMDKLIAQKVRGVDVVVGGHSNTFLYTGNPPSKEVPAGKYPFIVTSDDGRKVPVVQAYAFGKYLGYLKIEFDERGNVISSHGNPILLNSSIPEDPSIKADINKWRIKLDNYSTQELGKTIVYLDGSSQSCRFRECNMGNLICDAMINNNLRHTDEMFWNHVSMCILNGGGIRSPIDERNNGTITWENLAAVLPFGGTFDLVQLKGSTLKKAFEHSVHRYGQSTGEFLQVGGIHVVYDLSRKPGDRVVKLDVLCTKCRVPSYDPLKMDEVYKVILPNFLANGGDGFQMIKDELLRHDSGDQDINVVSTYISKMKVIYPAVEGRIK
experiment: Inhibition of the CD73 enzyme in vitro (soluble recombinant CD73, AMP, Malachite Green)
Format: biochemical
statedConditions: recombinant CD73 0.5 nM, AMP 50 μM, 30 minutes at room temperature
Description: The concentration of inorganic phosphate was determined using a phosphate standard curve.
pIC50: −log10 of the molar value.
# pIC50 listing for each entry below

{"molecule": "Nc1nc(Cl)nc2c1ncn2[C@@H]1O[C@H](COC(Cc2ccc(C(F)(F)F)o2)(C(=O)O)C(=O)O)[C@@H](O)[C@@H]1F [compound 59]", "pIC50": 6.36}
{"molecule": "CCOC(=O)C(Cc1ccc(OC(F)(F)F)cc1)(OC[C@H]1O[C@@H](n2cnc3c(N)nc(Cl)nc32)[C@@H](F)[C@@H]1O)C(=O)O (single isomer, unassigned) [compound 37]", "pIC50": 6.14}
{"molecule": "O=C(O)C(Cc1ccccc1)(OC[C@H]1O[C@@H](n2cnc3c(O)nc(Cl)nc32)[C@@H](F)[C@@H]1O)C(=O)O [compound 74]", "pIC50": 5.78}
{"molecule": "Nc1nc(Cl)nc2c1ncn2[C@@H]1O[C@H](COC(Cc2ccc(Cl)c(Cl)c2)(C(=O)O)C(=O)O)[C@@H](O)[C@@H]1F [compound 128]", "pIC50": 6.59}
{"molecule": "O=C(O)C(Cc1ccccc1)(OC[C@H]1O[C@@H](n2cnc3c(SC4CCCC4)nc(Cl)nc32)[C@@H](F)[C@@H]1O)C(=O)O [compound 109]", "pIC50": 6.22}
{"molecule": "Nc1nc(Cl)nc2c1ncn2[C@@H]1O[C@H](COC(Cc2cnn(Cc3ccccc3)c2)(C(=O)O)C(=O)O)[C@@H](O)[C@@H]1F [compound 63]", "pIC50": 5.91}

====

tgt: recombinant CD73 (Homo sapiens (Human), UniProt P21589)
experiment: Inhibition of the CD73 enzyme in vitro (soluble recombinant CD73, AMP, Malachite Green)
Assay type: biochemical
statedConditions: recombinant CD73 0.5 nM, AMP 50 μM, 30 minutes at room temperature
pIC50: −log10 of the molar value.
# pIC50 listing for each entry below

{"compound": "Nc1nc(Cl)nc2c1ncn2[C@@H]1O[C@H](COC(Cc2csc(C(=O)O)c2)(C(=O)O)C(=O)O)[C@@H](O)[C@@H]1F [compound 76]", "tgt": "recombinant CD73 (Homo sapiens (Human), UniProt P21589)", "pIC50": 7.13}
{"compound": "Nc1nc(Cl)nc2c1ncn2[C@@H]1O[C@H](COC(Cc2ccc(OCc3ccccc3)cc2)(C(=O)O)C(=O)O)[C@@H](O)[C@@H]1F [compound 65]", "tgt": "recombinant CD73 (Homo sapiens (Human), UniProt P21589)", "pIC50": 7.51}
{"compound": "COc1ccc(CC(OC[C@H]2O[C@@H](n3cnc4c(N)nc(Cl)nc43)[C@@H](F)[C@@H]2O)(C(=O)O)C(=O)O)cc1Cl [compound 85]", "tgt": "recombinant CD73 (Homo sapiens (Human), UniProt P21589)", "pIC50": 6.74}
{"compound": "Nc1nc(Cl)nc2c1ncn2[C@@H]1O[C@H](COC(Cc2ccc(C(=O)NCCC(=O)O)cc2)(C(=O)O)C(=O)O)[C@@H](O)[C@@H]1F [compound 87]", "tgt": "recombinant CD73 (Homo sapiens (Human), UniProt P21589)", "pIC50": 7.08}
{"compound": "Nc1nc(Cl)nc2c1ncn2[C@@H]1O[C@H](COC(Cc2cn[nH]c2)(C(=O)O)C(=O)O)[C@@H](O)[C@@H]1F [compound 64]", "tgt": "recombinant CD73 (Homo sapiens (Human), UniProt P21589)", "pIC50": 6.07}
{"compound": "Nc1nc(Cl)nc2c1ncn2[C@@H]1O[C@H](COC(Cc2ccc(F)c(F)c2F)(C(=O)O)C(=O)O)[C@@H](O)[C@@H]1F [compound 108]", "tgt": "recombinant CD73 (Homo sapiens (Human), UniProt P21589)", "pIC50": 6.98}
